Cited source: patent US5763433A

target_system: nuclear binding of tritiated dexamethazone (glucocorticoid receptors) (Mus musculus, UniProt P06537)
Construct: The liver, brain, spleen and thymus are excised and the cells of each organ are recovered; from tissue; host or cells: isolated cells of liver, brain, spleen and thymus of metyrapone-treated C57BL/6 mice
Sequence (P06537 whole entry): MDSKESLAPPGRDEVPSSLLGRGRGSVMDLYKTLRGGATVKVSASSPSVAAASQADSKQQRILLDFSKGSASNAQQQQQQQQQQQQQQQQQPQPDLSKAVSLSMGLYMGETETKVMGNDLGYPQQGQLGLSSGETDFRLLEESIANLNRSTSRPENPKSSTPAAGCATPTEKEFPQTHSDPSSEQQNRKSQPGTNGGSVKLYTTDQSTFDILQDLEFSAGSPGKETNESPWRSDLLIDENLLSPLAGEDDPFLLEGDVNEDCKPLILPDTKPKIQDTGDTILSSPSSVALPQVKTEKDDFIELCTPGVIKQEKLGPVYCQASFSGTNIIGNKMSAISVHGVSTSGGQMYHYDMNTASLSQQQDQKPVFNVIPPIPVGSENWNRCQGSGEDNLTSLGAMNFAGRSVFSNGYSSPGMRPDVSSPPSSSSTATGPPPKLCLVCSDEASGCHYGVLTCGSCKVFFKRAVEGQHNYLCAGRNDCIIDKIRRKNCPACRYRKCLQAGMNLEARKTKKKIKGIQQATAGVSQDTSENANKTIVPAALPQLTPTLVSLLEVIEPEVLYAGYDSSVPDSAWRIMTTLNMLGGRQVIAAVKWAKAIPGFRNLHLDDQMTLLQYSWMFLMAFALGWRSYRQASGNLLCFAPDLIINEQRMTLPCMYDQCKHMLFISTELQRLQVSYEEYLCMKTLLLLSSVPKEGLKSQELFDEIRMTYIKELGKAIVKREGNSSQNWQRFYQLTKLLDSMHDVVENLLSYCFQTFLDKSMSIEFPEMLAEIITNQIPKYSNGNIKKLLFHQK
assay_remarks: Displacement of the nuclear binding of tritiated dexamethazone in isolated liver, brain, thymus and spleen cells
Parameters: species or system C57BL/6 mouse
test_parameters: brain cells; 100-fold excess of steroid; no competitor = zero, unlabelled dexamethazone = 100; mean of triplicate
Method: The isolated hepatocytes are incubated for 1 hour at room temperature with increasing concentrations (2-80 nM) of ^3 H-dexamethazone (DEX*). […] The hepatocyte nuclei are then isolated and purified and the radioactivity corresponding to the DEX* still bound is measured and expressed in cpm/10 ug of DNA. The area under the curve DEX* corresponds to zero displacement of the radioactivity. […] The nuclei are recovered and their radioactive content measured as described by the authors cited above. […]
measured_property: Displacement coefficient for nuclear binding of tritiated dexamethazone, Brain

• CC(=O)[C@H]1CC[C@H]2[C@@H]3[C@H](O)C=C4C[C@@H](O)CC[C@]4(C)[C@H]3CC[C@]12C [7-hydroxy-PREG, 7-alpha-hydroxy-PREG] = 38
• C[C@]12CC[C@H](O)CC1=C[C@@H](O)[C@@H]1[C@@H]2CC[C@]2(C)C(=O)CC[C@@H]12 [7-hydroxy-DHEA] = 49
• C[C@]12CC[C@H](O)CC1=C[C@H](O)[C@@H]1[C@@H]2CC[C@]2(C)C(=O)CC[C@@H]12 [7β-hydroxy-DHEA] = 65
• C[C@]12CC[C@H](O)C[C@@H]1C[C@@H](O)[C@@H]1[C@@H]2CC[C@]2(C)[C@@H](O)CC[C@@H]12 = 96
